Biological target: hCA II (Homo sapiens)
Test: stopped-flow CO2 hydration assay, hCA II
Type: biochemical
// reported Ki per item
Express your answer in nM, writing the number without its unit.

Molecule | Ki [nM]
COCCOc1cc2ncnc(Nc3cccc(-c4cn(CCOCCOCCOCCNC(=S)Nc5cccc(S(N)(=O)=O)c5)nn4)c3)c2cc1OCCOC | 3170
COCCOc1cc2ncnc(Nc3cccc(-c4cn(CCOCCOCCOCCOCCOCCNC(=S)NCc5ccc(S(N)(=O)=O)cc5)nn4)c3)c2cc1OCCOC [compound 14c] | 1010
COCCOc1cc2ncnc(Nc3cccc(-c4cn(CCOCCOCCOCCOCCOCCC(=O)NCCOc5ccc6oc(=O)ccc6c5)nn4)c3)c2cc1OCCOC | 33700
COCCOc1cc2ncnc(Nc3cccc(-c4cn(CCOCCOCCOCCNC(=O)Nc5cccc(S(N)(=O)=O)c5)nn4)c3)c2cc1OCCOC | 723

Proceeding to the next molecule to report its Ki.
Query: Could you share which Ki value was measured for Cc1cn([C@H]2C[C@H](N=[N+]=[N-])[C@@H](CO)O2)c(=O)[nH]c1=O [AZT, azidothymidine, reference compound] ?
Reply: 12.1

====

Biological target: hCA I (Homo sapiens, UniProt P00915)
Sequence (P00915 whole entry): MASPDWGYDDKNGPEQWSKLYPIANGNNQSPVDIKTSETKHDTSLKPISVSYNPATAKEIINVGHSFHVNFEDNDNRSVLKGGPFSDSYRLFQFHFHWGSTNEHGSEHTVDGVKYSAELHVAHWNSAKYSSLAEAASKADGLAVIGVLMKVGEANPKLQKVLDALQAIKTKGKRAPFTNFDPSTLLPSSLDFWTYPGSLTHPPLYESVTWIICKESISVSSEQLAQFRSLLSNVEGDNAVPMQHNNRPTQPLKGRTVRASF
Reported property: Ki (µM)
Express your answer in µM, writing the number without its unit.

Below, 7 compounds whose answers are already recorded.
Compound | Ki (µM)
COCCOc1cc2ncnc(Nc3cccc(-c4cn(CCOCCOCCOCCOCCOCCNC(=S)Nc5ccc(S(N)(=O)=O)cc5)nn4)c3)c2cc1OCCOC [compound 14b] | 43.3
COCCOc1cc2ncnc(Nc3cccc(-c4cn(CCOCCOCCOCCNC(=S)NCc5ccc(S(N)(=O)=O)cc5)nn4)c3)c2cc1OCCOC [compound 8c] | 3.28
COCCOc1cc2ncnc(Nc3cccc(-c4cn(CCOCCOCCOCCNC(=O)Nc5ccc(S(N)(=O)=O)cc5)nn4)c3)c2cc1OCCOC [compound 7b] | 36.1
COCCOc1cc2ncnc(Nc3cccc(-c4cn(CCOCCOCCOCCNC(=S)Nc5cccc(S(N)(=O)=O)c5)nn4)c3)c2cc1OCCOC [compound 8a] | 45.8
Cc1cn([C@H]2C[C@H](N=[N+]=[N-])[C@@H](CO)O2)c(=O)[nH]c1=O [AZT, azidothymidine, reference compound] | 0.25
COCCOc1cc2ncnc(Nc3cccc(-c4cn(CCOCCOCCOCCOCCOCCNC(=S)NCCc5ccc(S(N)(=O)=O)cc5)nn4)c3)c2cc1OCCOC [compound 14d] | 0.957
COCCOc1cc2ncnc(Nc3cccc(-c4cn(CCOCCOCCOCCOCCOCCNC(=O)Nc5ccc(S(N)(=O)=O)cc5)nn4)c3)c2cc1OCCOC [compound 12b] | 24.8

Proceeding to the next compound to report its Ki.
Query: Could you share which Ki value was measured for COCCOc1cc2ncnc(Nc3cccc(-c4cn(CCOCCOCCOCCOCCOCCNC(=O)Nc5ccc6oc(=O)ccc6c5)nn4)c3)c2cc1OCCOC [compound 13] ?
Reply: 28.3

====

UniProt:O43570 pKi data
Sequence (O43570 25-354): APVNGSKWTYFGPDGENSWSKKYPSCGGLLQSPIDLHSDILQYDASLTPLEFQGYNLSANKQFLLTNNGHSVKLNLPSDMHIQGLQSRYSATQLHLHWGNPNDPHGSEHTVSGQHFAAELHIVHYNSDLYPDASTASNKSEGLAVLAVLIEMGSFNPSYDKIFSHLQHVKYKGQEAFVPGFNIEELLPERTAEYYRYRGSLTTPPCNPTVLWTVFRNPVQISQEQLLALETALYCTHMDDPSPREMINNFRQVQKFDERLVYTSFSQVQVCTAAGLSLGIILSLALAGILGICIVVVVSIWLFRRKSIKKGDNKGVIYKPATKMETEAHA
# pKi is unitless: minus log10 of the molar concentration; print number only

Molecule | Reported property | Recorded measurement
COCCOc1cc2ncnc(Nc3cccc(-c4cn(CCOCCOCCOCCNC(=O)Nc5cccc(S(N)(=O)=O)c5)nn4)c3)c2cc1OCCOC | pKi | 7.23
COCCOc1cc2ncnc(Nc3cccc(-c4cn(CCOCCOCCOCCNC(=S)NCc5ccc(S(N)(=O)=O)cc5)nn4)c3)c2cc1OCCOC | pKi | 7.16

Proceeding to the next molecule to report its pKi.
Query: Could you share which pKi value was measured for COCCOc1cc2ncnc(Nc3cccc(-c4cn(CCOCCOCCOCCOCCOCCNC(=S)NCc5ccc(S(N)(=O)=O)cc5)nn4)c3)c2cc1OCCOC [compound 14c] ?
Reply: 6.18
